# study_target: Cathepsin S (UniProt P25774)
# assay_explanation: Cathepsin enzyme inhibition assay (fluorogenic peptide substrate Z-Val-Val-Arg-AMC), Cathepsin S
# Type: biochemical, human and mouse
# condition_notes: enzyme 1 nM, substrate 20 μM, pH 6.5; read-out: CatS IC50
recorded_metric: IC50 (nM)

Some entries whose results are on file:
COc1ccc(N2C[C@H](S(=O)(=O)c3ccccc3C(F)(F)F)C[C@H]2C(=O)NC2(C#N)CC2)cc1 ... 6
Cc1ccc(=O)n(-c2ccc(S(=O)(=O)[C@@H]3C[C@@H](C(=O)NC4(C#N)CC4)N(C(=O)OC(C)(C)C)C3)c(C(F)(F)F)c2)n1 ... 0.7
CC(=O)N1C[C@H](S(=O)(=O)c2ccc(OC(C)C(F)(F)F)cc2Cl)C[C@H]1C(=O)NC1(C#N)CC1 (stereo partly shown) ... 3.8
CC(C)(C)OC(=O)N1C[C@H](S(=O)(=O)c2ccccc2C(F)(F)F)C[C@H]1C(=O)NC(C#N)C1CC1 (stereo partly shown) ... 5
CC(C)CC(=O)N1C[C@H](S(=O)(=O)c2ccc(OCC(F)(F)F)cc2Cl)C[C@H]1C(=O)NC1(C#N)CC1 ... 0.47

[A] Cc1cc(N2C[C@H](S(=O)(=O)c3ccccc3C(F)(F)F)C[C@H]2C(=O)NC2(C#N)CC2)n(C2CCCCC2)n1
[B] Cc1ccc(S(=O)(=O)[C@@H]2C[C@@H](C(=O)NC3(C#N)CC3)N(C(=O)OC(C)(C)C)C2)c(C)c1
Among A and B , whose measured IC50 is the smaller figure? Please indicate the selected item by its label.
A
(A: 0.437 nM, B: 2.2 nM)

---

# study_target: Cathepsin S (UniProt P25774)
# assay_explanation: Cathepsin enzyme inhibition assay (fluorogenic peptide substrate Z-Val-Val-Arg-AMC), Cathepsin S
# Format: biochemical, human and mouse
# condition_notes: enzyme 1 nM, substrate 20 μM, pH 6.5; read-out: CatS IC50
# Description: Cathepsin Enzyme Inhibition Assay Enzyme activity is measured by observing the increase in fluorescence intensity caused by cleavage of a peptide substrate containing a fluorophore whose emission is quenched in the intact peptide. Assay buffer: 100 mM potassium phosphate pH 6.5, EDTA-Na 5 mM, Triton X-100 0.001%, DDT 5 mM. […] Enzyme is added to the substance dilutions in 96-well microtitre plates and the reaction is started with substrate. […] IC50 are calculated by standard methods. […]
pIC50: −log10 of the molar value. Counter-ions that a name gives are not always drawn.
recorded_metric: pIC50

For orientation, consider the following solved cases.
N#CC1(NC(=O)[C@@H]2C[C@@H](S(=O)(=O)c3ccccc3C(F)(F)F)CN2C(=O)C2CCC(C(F)(F)F)CC2)CC1 (some centres unmarked) ... 9.52
N#CC1(NC(=O)[C@@H]2C[C@@H](S(=O)(=O)c3ccccc3C(F)(F)F)CN2c2cc(C3CC3)n[nH]2)CC1 ... 8.48
N#CC1(NC(=O)[C@@H]2C[C@@H](S(=O)(=O)c3ccccc3C(F)(F)F)CN2Cc2ccccc2)CC1 ... 7.60
CN1C[C@H](S(=O)(=O)c2ccccc2Cl)C[C@H]1C(=O)NC1(C#N)CC1 ... 6.02
CC(C)(C)OC(=O)N1C[C@H](S(=O)(=O)c2cccc(Cl)c2Cl)C[C@H]1C(=O)NC1(C#N)CC1 ... 7.51

[a] CC(C)(C#N)NC(=O)[C@@H]1C[C@@H](S(=O)(=O)c2ccccc2Cl)CN1 [Example 44, Hydrochloride]
[b] N#CC1(NC(=O)[C@@H]2C[C@@H](S(=O)(=O)c3ccc(N4CCOC4=O)cc3C(F)(F)F)CN2)CC1 [Example 27, hydrochloride]
Response body: label of entry with the larger pIC50; valid values a , b . Refer to your chosen entry by its label in the reply.
b

---

# study_target: Cathepsin S (UniProt P25774)
# assay_explanation: Cathepsin enzyme inhibition assay (fluorogenic peptide substrate Z-Val-Val-Arg-AMC), Cathepsin S
# Assay type: biochemical, human and mouse
# condition_notes: read-out: CatS IC50; enzyme 1 nM, substrate 20 μM, pH 6.5
recorded_metric: IC50 (nM)
State just the number; it will be interpreted in nM.

Which IC50 reading was recorded for the molecule Cc1cc(-c2ccc(S(=O)(=O)[C@@H]3C[C@@H](C(=O)NC4(C#N)CC4)N(C(=O)C4(C(F)(F)F)CC4)C3)c(C(F)(F)F)c2)ccn1 [Example 248] ?
0.55

---

# study_target: Cat L (UniProt P07711)
# assay_explanation: Cathepsin enzyme inhibition assay (fluorogenic peptide substrate Z-Val-Val-Arg-AMC), Cathepsin L
# Format: biochemical, human and mouse
# condition_notes: enzyme 1 nM, substrate 20 μM, pH 6.5; read-out: CatL IC50
recorded_metric: IC50 (µM)

N#CC1(NC(=O)[C@@H]2C[C@@H](S(=O)(=O)c3ccc(N4CCC(F)(F)CC4)cc3Cl)CN2)CC1 ... 8.32

[1] N#CC1(NC(=O)[C@@H]2C[C@@H](S(=O)(=O)c3ccccc3Cl)CN2C(=O)C(F)(F)c2ccc(Cl)cc2)CC1
[2] N#CC1(NC(=O)[C@@H]2C[C@@H](S(=O)(=O)c3ccccc3Cl)CN2C(=O)C2(c3ccc(I)cc3)CC2)CC1
I need your help: which of the pair 1 , 2 has higher IC50? Kindly give the label for the entry you pick.
1
(1: 0.24 µM, 2: 0.0065 µM)

---

# study_target: UniProtKB P25774
# assay_explanation: Cathepsin enzyme inhibition assay (fluorogenic peptide substrate Z-Val-Val-Arg-AMC), Cathepsin S
# Format: biochemical, human and mouse
# condition_notes: enzyme 1 nM, substrate 20 μM, pH 6.5; read-out: CatS IC50
# Method: Cathepsin Enzyme Inhibition Assay Enzyme activity is measured by observing the increase in fluorescence intensity caused by cleavage of a peptide substrate containing a fluorophore whose emission is quenched in the intact peptide. Assay buffer: 100 mM potassium phosphate pH 6.5, EDTA-Na 5 mM, Triton X-100 0.001%, DDT 5 mM. […] Enzyme is added to the substance dilutions in 96-well microtitre plates and the reaction is started with substrate. […] IC50 are calculated by standard methods. […]
pIC50: −log10 of the molar value.
recorded_metric: pIC50

[I] N#CC1(NC(=O)[C@@H]2C[C@@H](S(=O)(=O)c3ccc(Cl)cc3Cl)CN2C(=O)C2CC2(F)F)CC1 (stereo partly shown) [Example 170]
[II] CC1(C(=O)N2C[C@H](S(=O)(=O)CC3CC3)C[C@H]2C(=O)NC2(C#N)CC2)CC1 [Example 454]
Hi team, can someone confirm which has the larger pIC50: I or II ? Thanks. // return label of chosen record
I

---

# study_target: UniProt:P07711
# assay_explanation: Cathepsin enzyme inhibition assay (fluorogenic peptide substrate Z-Val-Val-Arg-AMC), Cathepsin L
# Type: biochemical, human and mouse
# condition_notes: enzyme 1 nM, substrate 20 μM, pH 6.5; read-out: CatL IC50
pIC50: −log10 of the molar value.
recorded_metric: pIC50

N#CC1(NC(=O)[C@@H]2C[C@@H](S(=O)(=O)c3ccccc3Cl)CN2S(=O)(=O)c2ccc3ccccc3c2)CC1 ... 5.86
Cc1cc(N2C[C@H](S(=O)(=O)c3ccccc3C(F)(F)F)C[C@H]2C(=O)NC2(C#N)CC2)n(-c2ccc(C(F)(F)F)cc2)n1 ... 4.89
CN1CCN(c2ccc(S(=O)(=O)[C@@H]3C[C@@H](C(=O)NC4(C#N)CC4)N(C(=O)C4(C(F)(F)F)CC4)C3)c(C(F)(F)F)c2)CC1 ... 4.78

[a] CC(C)C(=O)N1C[C@H](S(=O)(=O)c2ccccc2Cl)C[C@H]1C(=O)NC1(C#N)CC1
[b] COc1ccc(S(=O)(=O)[C@@H]2C[C@@H](C(=O)NC3(C#N)CC3)N(C(=O)OC(C)(C)C)C2)c(Cl)c1
[c] N#CC1(NC(=O)[C@@H]2C[C@@H](S(=O)(=O)c3ccc(OCC(F)(F)F)cc3Cl)CN2C(=O)C2(c3ccc(Br)cc3)CC2)CC1
Ordering criterion: pIC50; begin with the maximum. Write the labels in rank order as requested.
c, a, b
(c: 8.09, a: 4.84, b: 4.28)

---

# study_target: UniProt P25774
# assay_explanation: Cathepsin enzyme inhibition assay (fluorogenic peptide substrate Z-Val-Val-Arg-AMC), Cathepsin S
# Type: biochemical, human and mouse
# condition_notes: enzyme 1 nM, substrate 20 μM, pH 6.5; read-out: CatS IC50
pIC50: −log10 of the molar value. Structures can show the parent of a compound that is named as a salt.
recorded_metric: pIC50

N#CC1(NC(=O)[C@@H]2C[C@@H](S(=O)(=O)c3ccccc3C(F)(F)F)CN2c2cc(C3CC3)nn2C2CCC2)CC1 [Example 398] ... 9.26
N#CC1(NC(=O)[C@@H]2C[C@@H](S(=O)(=O)c3ccccc3Cl)CN2C(=O)C2(c3ccc(F)cc3)CC2)CC1 [Example 425] ... 9.59
N#CC1(NC(=O)[C@@H]2C[C@@H](S(=O)(=O)c3ccccc3Cl)CN2C(=O)[C@H](N)c2ccc(Cl)cc2)CC1 [Example 417] ... 8.61
Cc1cc(N2C[C@H](S(=O)(=O)c3ccc(N4CCN(C)CC4)cc3Cl)C[C@H]2C(=O)NC2(C#N)CC2)n(C2CCC2)n1 [Example 401] ... 9.34
N#CC1(NC(=O)[C@@H]2C[C@@H](S(=O)(=O)c3ccc(OCC(F)(F)F)cc3Cl)CN2C(=O)C(c2ccc(Cl)cc2)c2ccc(Cl)cc2)CC1 [Example 275] ... 9.42

[A] N#CC1(NC(=O)[C@@H]2C[C@@H](S(=O)(=O)c3ccc(-c4ccnc(Cl)c4)cc3C(F)(F)F)CN2C(=O)C2(C(F)(F)F)CC2)CC1 [Example 245]
[B] CC(=O)N1C[C@H](S(=O)(=O)c2ccc(N3CCCCC3)cc2Cl)C[C@H]1C(=O)NC1(C#N)CC1 [Example 133]
Hey, which is lower on measured pIC50, A or B ? Pick one; state its label.
B

[I] N#CC1(NC(=O)[C@@H]2C[C@@H](S(=O)(=O)c3ccc(-n4cnc5ccccc54)cc3C(F)(F)F)CN2)CC1 [Example 22, hydrochloride]
[II] CCN1C[C@H](S(=O)(=O)c2ccccc2Cl)C[C@H]1C(=O)NC1(C#N)CC1 [Example 83]
For I and II , which recorded pIC50 is lower? State your choice using its label.
II
(II: 7.52, I: 9.30)
